B1: HDV Ribozyme (parent)
chain: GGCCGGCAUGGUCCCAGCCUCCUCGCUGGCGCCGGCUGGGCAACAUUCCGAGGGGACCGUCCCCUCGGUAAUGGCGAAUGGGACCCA

# Variants of: B1
# METHOD_NOTES: self-cleavage, relative activity (ratio to wild type); higher = more cleavage; co-transcriptional
Decide using self-cleavage: a value greater than or equal to 0.3 is y, a smaller one is n.

Examples with answers:
VARIANT_KEY	LABEL_CLASS
C19G G50A	n
C57U U69G	y
A8U A77U	n
G52U G68U	y
C36A G67U	n

Exercise: Test whether the variant G5U C64A records self-cleavage of 0.3 or higher.
Solution: y

Exercise: Please tell me: is the variant A77G G81A at or over 0.3 in terms of self-cleavage?
Solution: n

Exercise: I'd appreciate it if you could say whether U20C A42G has self-cleavage at least equal to 0.3.
Solution: n
